System: human peripheral blood mononuclear cells (PBMC)
Test: Human T-cell proliferation in vitro (3H-thymidine incorporation)
Format: cell-based
Settings: Homo sapiens, PBMC, PMA + ionomycin stimulated, compound 10 μM; read-out: Percentage of inhibition of proliferation of stimulated PBMC
Protocol: Influence of substances at two different concentrations (50 μM and 10 μM) on cell proliferation of human peripheral blood mononuclear cells (PBMC) was assessed. Heparinized peripheral blood was obtained from healthy donors, and PBMC were isolated by Histopaque 1077 (Sigma, USA) density centrifugation at 400×g for 30 minutes. […] The incorporation of ^3H-thymidine in activated cells were measured using TopCount NXT (Packard, USA). […]
value.kind: inhibition at 10 µM (%)

sample.smiles	value.kind	value.observed
CC[C@H]1OC(=O)[C@H](C)[C@@H](O[C@H]2C[C@@](C)(OC)[C@@H](O)[C@H](C)O2)[C@H](C)[C@@H](O[C@@H]2O[C@H](C)C[C@H](N(C)C)[C@H]2O)[C@](C)(O)C[C@@H](C)CN(C(=S)Nc2cccc(C(F)(F)F)c2)[C@H](C)[C@@H](O)[C@]1(C)O	inhibition at 10 µM	50

====

As shown below, each of these compounds has a reported Percentage of inhibition of TNF-α production value.
Test system: TNF-α
Test: Inhibition of TNF-α production by stimulated human peripheral blood leukocytes in vitro
Format: cell-based
Settings: PBL, LPS stimulated, compound 50 μM
Protocol: Test substances used in in vitro experiments were dissolved in dimethyl sulfoxide (DMSO) (Kemika, Croatia) at concentrations of 50 mM and 10 mM, and were further diluted to final concentrations of 50 μM and 10 μM in 1 mL Dulbecco's modified Eagle medium (DMEM) supplemented with 1% heat inactivated fetal bovine serum (FBS), 1% L-glutamine, 50 U/ml penicillin, 50 μg/ml streptomycin and 2.5 μg/mL Fungizone (amphotericin B). […]
value.kind: Percentage of inhibition of TNF-α production (%)

compound	value.observed
CC[C@H]1OC(=O)[C@H](C)[C@@H](O[C@H]2C[C@@](C)(OC)[C@@H](O)[C@H](C)O2)[C@H](C)[C@@H](O[C@@H]2O[C@H](C)C[C@H](N(C)C)[C@H]2O)[C@](C)(O)C[C@@H](C)CN(C(=S)Nc2ccc(Br)cc2)[C@H](C)[C@@H](O)[C@]1(C)O	100
CCC1OC(=O)C(C)C(OC2CC(C)(OC)C(O)C(C)O2)C(C)C(OC2OC(C)CC(N(C)C)C2O)C(C)(O)CC(C)CN(C(=S)Nc2ccc(Cl)cc2)C(C)C(O)C1(C)O (stereo not drawn)	100
CCC1OC(=O)C(C)C(O)C(C)C(OC2OC(C)CC(N(C)C)C2O)C(C)(O)CC(C)CN(C(=S)NCc2ccccc2)C(C)C(O)C1(C)O (stereo not drawn)	33

====

system: IL-1α; test: Inhibition of IL-1 production by stimulated human peripheral blood leukocytes in vitro; format: cell-based; details: PBL, LPS stimulated, compound 50 μM
value.kind: Percentage of inhibition of IL-1α production (%)

compound	units.of.measure	value.observed
CC[C@H]1OC(=O)[C@H](C)[C@@H](O[C@H]2C[C@@](C)(OC)[C@@H](O)[C@H](C)O2)[C@H](C)[C@@H](O[C@@H]2O[C@H](C)C[C@H](N(C)C)[C@H]2O)[C@](C)(O)C[C@@H](C)CN(C(=O)Nc2ccc(Cl)c(C(F)(F)F)c2)[C@H](C)[C@@H](O)[C@]1(C)O	%	100
CCC1OC(=O)C(C)C(O)C(C)C(OC2OC(C)CC(N(C)C)C2O)C(C)(O)CC(C)CN(C(=S)NCc2ccccc2)C(C)C(O)C1(C)O (stereo not shown)	%	78
CCC1OC(=O)C(C)C(OC2CC(C)(OC)C(O)C(C)O2)C(C)C(OC2OC(C)CC(N(C)C)C2O)C(C)(O)CC(C)CN(C(=S)Nc2cccc(F)c2)C(C)C(O)C1(C)O (stereo not shown)	%	30
CC[C@H]1OC(=O)[C@H](C)[C@@H](O[C@H]2C[C@@](C)(OC)[C@@H](O)[C@H](C)O2)[C@H](C)[C@@H](O[C@@H]2O[C@H](C)C[C@H](N(C)C)[C@H]2O)[C@](C)(O)C[C@@H](C)CN(C(=S)Nc2ccc(Br)cc2)[C@H](C)[C@@H](O)[C@]1(C)O	%	89
CC[C@H]1OC(=O)[C@H](C)C2O[C@@](C)(C[C@@H](C)CN(C(=O)NCc3ccccc3)[C@H](C)[C@@H](O)[C@]1(C)O)[C@H](O[C@@H]1O[C@H](C)C[C@H](N(C)C)[C@H]1O)[C@H]2C	%	38
CCC1OC(=O)C(C)C(OC2CC(C)(OC)C(O)C(C)O2)C(C)C(OC2OC(C)CC(N(C)C)C2O)C(C)(O)CC(C)CN(C(=S)Nc2ccc(Cl)cc2)C(C)C(O)C1(C)O (stereo not shown)	%	98
CC[C@H]1OC(=O)[C@H](C)[C@@H](O)[C@H](C)[C@@H](O[C@@H]2O[C@H](C)C[C@H](N(C)C)[C@H]2O)[C@](C)(O)C[C@@H](C)CN(C(=O)NCc2ccccc2)[C@H](C)[C@@H](O)[C@]1(C)O	%	40

====

A collection of compounds and their measured Percentage of viable cells after treatment
test system: A549; experiment: MTT cytotoxicity assay on A549 cell line; assay type: cell-based; settings: human, 24 h, 50 μM
value.kind: Percentage of viable cells after treatment (%)

compound	value.observed
CC[C@H]1OC(=O)[C@H](C)[C@@H](O[C@H]2C[C@@](C)(OC)[C@@H](O)[C@H](C)O2)[C@H](C)[C@@H](O[C@@H]2O[C@H](C)C[C@H](N(C)C)[C@H]2O)[C@](C)(OC)C[C@@H](C)C(=O)[C@H](C)[C@@H](O)[C@]1(C)O [Clarithromycin, clarithromycin, reference compound]	100
CC[C@H]1OC(=O)[C@H](C)[C@@H](O[C@H]2C[C@@](C)(OC)[C@@H](O)[C@H](C)O2)[C@H](C)[C@@H](O[C@@H]2O[C@H](C)C[C@H](N(C)C)[C@H]2O)[C@](C)(O)C[C@@H](C)CN(C(=S)Nc2ccccc2F)[C@H](C)[C@@H](O)[C@]1(C)O [Compound 5]	100
CC[C@H]1OC(=O)[C@H](C)[C@@H](O[C@H]2C[C@@](C)(OC)[C@@H](O)[C@H](C)O2)[C@H](C)[C@@H](O[C@@H]2O[C@H](C)C[C@H](N(C)C)[C@H]2O)[C@](C)(O)C[C@@H](C)CN(C)[C@H](C)[C@@H](O)[C@]1(C)O [Azithromycin, azithromycin, reference compound]	100
CC[C@H]1OC(=O)[C@H](C)[C@@H](O[C@H]2C[C@@](C)(OC)[C@@H](O)[C@H](C)O2)[C@H](C)[C@@H](O[C@@H]2O[C@H](C)C[C@H](N(C)C)[C@H]2O)[C@](C)(O)C[C@@H](C)CN(C(=O)NC(C)c2cccc3ccccc23)[C@H](C)[C@@H](O)[C@]1(C)O (some centres unmarked) [Compound 12]	72
CC[C@H]1OC(=O)[C@H](C)[C@@H](O[C@H]2C[C@@](C)(OC)[C@@H](O)[C@H](C)O2)[C@H](C)[C@@H](O[C@@H]2O[C@H](C)C[C@H](N(C)C)[C@H]2O)[C@](C)(O)C[C@@H](C)CN(C(=O)Nc2ccc(C(F)(F)F)cc2)[C@H](C)[C@@H](O)[C@]1(C)O [Compound 9]	100

====

Listing of recorded inhibition at 50 µM by entry.
system: IL-6; experiment: Inhibition of IL-6 production by stimulated human peripheral blood leukocytes in vitro; assay type: cell-based; conditions: Homo sapiens, Leukocyte, PBL, zymosan stimulated, compound 50 μM; read-out: Percentage of inhibition of IL-6 production

compound	inhibition at 50 µM / %
CC[C@H]1OC(=O)[C@H](C)[C@@H](O[C@H]2C[C@@](C)(OC)[C@@H](O)[C@H](C)O2)[C@H](C)[C@@H](O[C@@H]2O[C@H](C)C[C@H](N(C)C)[C@H]2O)[C@](C)(O)C[C@@H](C)CN(C(=S)Nc2cccc(C(F)(F)F)c2)[C@H](C)[C@@H](O)[C@]1(C)O [Compound 4]	100
CC[C@H]1OC(=O)[C@H](C)[C@@H](O[C@H]2C[C@@](C)(OC)[C@@H](O)[C@H](C)O2)[C@H](C)[C@@H](O[C@@H]2O[C@H](C)C[C@H](N(C)C)[C@H]2O)[C@](C)(O)C[C@@H](C)CN(C)[C@H](C)[C@@H](O)[C@]1(C)O [Azithromycin, azithromycin, reference compound]	75
CC[C@H]1OC(=O)[C@H](C)[C@@H](O[C@H]2C[C@@](C)(OC)[C@@H](O)[C@H](C)O2)[C@H](C)[C@@H](O[C@@H]2O[C@H](C)C[C@H](N(C)C)[C@H]2O)[C@](C)(OC)C[C@@H](C)C(=O)[C@H](C)[C@@H](O)[C@]1(C)O [Clarithromycin, clarithromycin, reference compound]	0
CC[C@H]1OC(=O)[C@H](C)[C@@H](O[C@H]2C[C@@](C)(OC)[C@@H](O)[C@H](C)O2)[C@H](C)[C@@H](O[C@@H]2O[C@H](C)C[C@H](N(C)C)[C@H]2O)[C@](C)(O)C[C@@H](C)CN(C(=O)Nc2ccc(C(F)(F)F)cc2)[C@H](C)[C@@H](O)[C@]1(C)O [Compound 9]	100
CC[C@H]1OC(=O)[C@H](C)[C@@H](O[C@H]2C[C@@](C)(OC)[C@@H](O)[C@H](C)O2)[C@H](C)[C@@H](O[C@@H]2O[C@H](C)C[C@H](N(C)C)[C@H]2O)[C@](C)(O)C[C@@H](C)CN(C(=O)NC(C)c2cccc3ccccc23)[C@H](C)[C@@H](O)[C@]1(C)O (some centres unmarked) [Compound 12]	100
CC[C@H]1OC(=O)[C@H](C)[C@@H](O)[C@H](C)[C@@H](O[C@@H]2O[C@H](C)C[C@H](N(C)C)[C@H]2O)[C@](C)(O)C[C@@H](C)CN(C(=O)Nc2cccc(C(F)(F)F)c2)[C@H](C)[C@@H](O)[C@]1(C)O [Compound 13]	94
CC[C@H]1OC(=O)[C@H](C)[C@@H](O[C@H]2C[C@@](C)(OC)[C@@H](O)[C@H](C)O2)[C@H](C)[C@@H](O[C@@H]2O[C@H](C)C[C@H](N(C)C)[C@H]2O)[C@](C)(O)C[C@@H](C)CN(C(=S)Nc2ccccc2F)[C@H](C)[C@@H](O)[C@]1(C)O [Compound 5]	88
CC[C@H]1OC(=O)[C@H](C)[C@@H](O[C@H]2C[C@@](C)(OC)[C@@H](O)[C@H](C)O2)[C@H](C)[C@@H](O[C@@H]2O[C@H](C)C[C@H](N(C)C)[C@H]2O)[C@](C)(O)C[C@@H](C)CN(C(=S)Nc2cccc(Br)c2)[C@H](C)[C@@H](O)[C@]1(C)O [Compound 6]	100
